Target: Nucleotide-binding oligomerization domain-containing protein 1 (Homo sapiens)
Sequence (whole entry): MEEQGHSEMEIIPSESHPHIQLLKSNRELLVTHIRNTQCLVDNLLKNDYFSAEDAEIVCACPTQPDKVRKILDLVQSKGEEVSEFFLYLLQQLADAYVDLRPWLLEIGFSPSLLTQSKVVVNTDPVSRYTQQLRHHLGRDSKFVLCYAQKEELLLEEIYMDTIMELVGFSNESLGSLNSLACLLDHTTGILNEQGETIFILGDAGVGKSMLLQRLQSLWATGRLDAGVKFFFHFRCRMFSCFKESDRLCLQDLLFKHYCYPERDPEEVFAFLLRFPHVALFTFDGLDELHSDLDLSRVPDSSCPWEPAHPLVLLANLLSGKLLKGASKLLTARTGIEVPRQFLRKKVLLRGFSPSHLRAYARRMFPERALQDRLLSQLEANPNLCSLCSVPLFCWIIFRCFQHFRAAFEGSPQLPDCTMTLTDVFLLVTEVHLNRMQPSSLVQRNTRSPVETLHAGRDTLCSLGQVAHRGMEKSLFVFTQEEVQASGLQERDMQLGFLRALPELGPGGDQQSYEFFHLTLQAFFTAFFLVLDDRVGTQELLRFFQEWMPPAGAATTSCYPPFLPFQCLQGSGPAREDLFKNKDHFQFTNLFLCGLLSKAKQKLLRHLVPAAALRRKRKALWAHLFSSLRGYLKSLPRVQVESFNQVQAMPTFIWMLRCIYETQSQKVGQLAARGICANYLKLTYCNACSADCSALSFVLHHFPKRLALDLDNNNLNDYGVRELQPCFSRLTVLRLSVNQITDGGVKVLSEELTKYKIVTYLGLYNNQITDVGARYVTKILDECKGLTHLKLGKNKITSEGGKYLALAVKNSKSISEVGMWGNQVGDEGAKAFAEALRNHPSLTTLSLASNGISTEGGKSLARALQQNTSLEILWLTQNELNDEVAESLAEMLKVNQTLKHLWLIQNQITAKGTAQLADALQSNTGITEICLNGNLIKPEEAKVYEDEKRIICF
Test: Antagonist activity at human NOD1 expressed in HEK-blue cells assessed as inhibition of C12-iE-DAP-stimulated cell activation at 5 uM preincubated for 3 hrs followed by C12-iE-DAP addition measured after 20 hrs by SEAP reporter gene assay
Assay type: cell-based
endpointName: inhibition (%)
Answer format: numeric, % implied, no suffix.

Known inhibition results, listed for orientation:
>>> numericvalue("COC(=O)CC[C@H]1NC(=O)c2cc(Oc3cccc(N(C)C)c3)c(NC(=O)COCc3ccc(C(F)(F)F)cc3)cc2NC1=O")
89.8
>>> numericvalue("CN(C)c1cccc(Oc2cc3c(cc2NC(=O)COCc2ccc(C(F)(F)F)cc2)NC(=O)[C@@H](CCC(=O)N2CCC(F)(F)CC2)NC3=O)c1")
91.2

Please look at the following molecule next.
Ask | Using the record for `CN(C)c1cccc(Oc2cc3c(cc2NC(=O)COCc2ccccc2)NC(=O)[C@@H](CCC(=O)N2CCCC2)NC3=O)c1` , report its inhibition.
Reply | 73.2

---

Molecular target: Nucleotide-binding oligomerization domain-containing protein 2 (Homo sapiens, UniProt Q9HC29)
Sequence (Q9HC29 whole entry, the tested form may be a part): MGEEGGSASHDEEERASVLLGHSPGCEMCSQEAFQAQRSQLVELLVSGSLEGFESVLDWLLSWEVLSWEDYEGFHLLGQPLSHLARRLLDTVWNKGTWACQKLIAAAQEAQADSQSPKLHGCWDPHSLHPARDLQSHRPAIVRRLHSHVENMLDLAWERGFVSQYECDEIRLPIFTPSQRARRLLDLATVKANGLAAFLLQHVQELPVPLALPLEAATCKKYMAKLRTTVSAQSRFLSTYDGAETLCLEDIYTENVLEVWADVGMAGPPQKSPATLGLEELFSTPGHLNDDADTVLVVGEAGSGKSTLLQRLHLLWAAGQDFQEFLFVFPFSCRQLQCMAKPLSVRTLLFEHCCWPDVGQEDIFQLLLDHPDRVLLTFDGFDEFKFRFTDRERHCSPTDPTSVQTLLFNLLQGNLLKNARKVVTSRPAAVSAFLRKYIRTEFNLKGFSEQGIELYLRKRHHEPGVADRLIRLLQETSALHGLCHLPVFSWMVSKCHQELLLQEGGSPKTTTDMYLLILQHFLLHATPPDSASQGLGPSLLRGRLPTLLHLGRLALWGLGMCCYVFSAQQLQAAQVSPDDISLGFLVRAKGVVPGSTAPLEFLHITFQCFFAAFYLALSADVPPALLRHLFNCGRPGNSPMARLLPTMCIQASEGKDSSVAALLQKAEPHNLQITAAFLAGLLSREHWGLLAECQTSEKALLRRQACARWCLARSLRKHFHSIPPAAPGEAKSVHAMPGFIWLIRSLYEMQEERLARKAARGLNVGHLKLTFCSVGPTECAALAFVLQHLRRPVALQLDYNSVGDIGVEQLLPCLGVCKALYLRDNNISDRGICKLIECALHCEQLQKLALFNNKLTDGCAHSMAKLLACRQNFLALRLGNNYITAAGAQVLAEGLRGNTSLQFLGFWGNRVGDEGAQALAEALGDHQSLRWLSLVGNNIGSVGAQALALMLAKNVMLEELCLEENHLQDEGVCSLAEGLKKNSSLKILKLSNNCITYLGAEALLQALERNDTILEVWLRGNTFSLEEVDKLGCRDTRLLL
Assay: Antagonist activity at human NOD2 expressed in HEK-Blue cells assessed as inhibition of MDP-stimulated cell activation at 5 uM preincubated for 3 hrs followed by MDP addition measured after 20 hrs by SEAP reporter gene assay
Format: cell-based
Label fulfilled when inhibition >= 30%; otherwise not fulfilled.

Ask | Decide: is the reported value of inhibition for `CN(C)c1cccc(Oc2cc3c(cc2NC(=O)COCc2ccc(C(F)(F)F)cc2)NC(=O)[C@@H](CCC(=O)N2CCC(F)(F)CC2)NC3=O)c1` equal to or greater than 30%?
Reply | fulfilled

Ask | Decide: is the reported value of inhibition for `CN(C)c1cccc(Oc2cc3c(cc2NC(=O)COCc2ccccc2)NC(=O)[C@@H](CCC(=O)N2CCNCC2)NC3=O)c1` equal to or greater than 30%?
Reply | fulfilled

Ask | Decide: is the reported value of inhibition for `COC(=O)CC[C@@H]1NC(=O)c2cc(Oc3cccc(N(C)C)c3)c(NC(=O)COCc3ccc(C(F)(F)F)cc3)cc2NC1=O` equal to or greater than 30%?
Reply | fulfilled

Ask | Decide: is the reported value of inhibition for `COC(=O)CC[C@H]1NC(=O)c2cc(Oc3cccc(N(C)C)c3)c(NC(=O)COCc3ccc(F)cc3Cl)cc2NC1=O` equal to or greater than 30%?
Reply | not fulfilled

Ask | Decide: is the reported value of inhibition for `CN(C)c1cccc(Oc2cc3c(cc2NC(=O)COCc2ccccc2)NC(=O)[C@@H](CCC(=O)NC2CC2)NC3=O)c1` equal to or greater than 30%?
Reply | fulfilled

Ask | Decide: is the reported value of inhibition for `COC(=O)CC[C@H]1NC(=O)c2cc(Oc3cccc(N(C)C)c3)c(NC(=O)COCc3ccc(F)c(F)c3)cc2NC1=O` equal to or greater than 30%?
Reply | fulfilled

Ask | Decide: is the reported value of inhibition for `CCCNC(=O)CC[C@H]1NC(=O)c2cc(Oc3cccc(N(C)C)c3)c(NC(=O)COCc3ccccc3)cc2NC1=O` equal to or greater than 30%?
Reply | fulfilled

Ask | Decide: is the reported value of inhibition for `COC(=O)CC[C@H]1NC(=O)c2cc(Oc3cccc(N(C)C)c3)c(NC(=O)COCc3cccc(F)c3)cc2NC1=O` equal to or greater than 30%?
Reply | fulfilled
